Tested on: B cell activation in human whole blood
Test: Inhibition of B cell activation in human whole blood (CD69 expression, flow cytometry)
Type: cell-based
Conditions: anti-human IgD 30 µg/ml + IL-4 5 ng/ml, 18 hours, CD69-positive CD19-positive B cells, read-out: IC50 values of inhibitory activity against B cell activation in human whole blood
pIC50: −log10 of the molar value.
pIC50: recorded values

{"COMPOUND": "C=CC(=O)N(C)CCOc1c(N)ncnc1-c1cc(F)cc(NC(=O)c2cc3c(cc2F)C2(CC3)CC2)c1C [Example 1]", "pIC50": "7.00 to 8.00"}

Turning to the following compound.
*Q* Reported pIC50, compound [2H]C([2H])([2H])N(CCOc1c(N)ncnc1-c1cc(F)cc(NC(=O)c2cc3c(cc2F)C2(CC3)CC2)c1C)C(=O)C=C [Example 19] : ____
*A* 7.00 to 8.00

###

Target: hERG potassium channels (Homo sapiens, UniProt Q12809)
Sequence (Q12809 whole entry): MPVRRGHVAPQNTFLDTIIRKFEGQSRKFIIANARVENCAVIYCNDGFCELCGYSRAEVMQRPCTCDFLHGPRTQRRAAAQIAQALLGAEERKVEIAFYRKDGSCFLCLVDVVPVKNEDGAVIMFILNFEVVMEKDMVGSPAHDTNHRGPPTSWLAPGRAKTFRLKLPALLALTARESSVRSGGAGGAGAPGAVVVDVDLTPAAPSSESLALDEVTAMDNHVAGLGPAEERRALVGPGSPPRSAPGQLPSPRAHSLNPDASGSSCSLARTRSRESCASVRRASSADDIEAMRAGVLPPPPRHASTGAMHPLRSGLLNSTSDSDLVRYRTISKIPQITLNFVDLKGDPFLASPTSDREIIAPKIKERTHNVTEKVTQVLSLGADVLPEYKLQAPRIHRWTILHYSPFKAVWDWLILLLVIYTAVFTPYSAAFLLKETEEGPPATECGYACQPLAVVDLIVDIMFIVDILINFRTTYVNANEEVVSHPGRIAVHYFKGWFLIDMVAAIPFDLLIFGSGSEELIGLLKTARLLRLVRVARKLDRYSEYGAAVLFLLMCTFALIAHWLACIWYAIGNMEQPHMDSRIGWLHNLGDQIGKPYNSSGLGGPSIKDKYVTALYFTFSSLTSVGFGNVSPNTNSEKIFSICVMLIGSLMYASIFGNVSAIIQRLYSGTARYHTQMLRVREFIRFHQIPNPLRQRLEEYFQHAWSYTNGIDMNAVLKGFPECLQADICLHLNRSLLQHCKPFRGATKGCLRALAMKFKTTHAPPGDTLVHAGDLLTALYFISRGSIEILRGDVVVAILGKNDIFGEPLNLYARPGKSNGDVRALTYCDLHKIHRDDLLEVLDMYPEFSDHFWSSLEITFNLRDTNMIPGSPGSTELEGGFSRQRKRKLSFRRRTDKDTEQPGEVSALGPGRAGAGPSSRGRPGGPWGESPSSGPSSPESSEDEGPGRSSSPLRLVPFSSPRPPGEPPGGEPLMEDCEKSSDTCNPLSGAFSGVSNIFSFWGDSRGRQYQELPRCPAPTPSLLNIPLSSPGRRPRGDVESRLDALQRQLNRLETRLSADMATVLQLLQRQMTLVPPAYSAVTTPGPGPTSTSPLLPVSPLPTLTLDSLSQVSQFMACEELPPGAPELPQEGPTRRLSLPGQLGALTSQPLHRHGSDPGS
Assay: hERG channel inhibition, automated patch-clamp in HEK293-hERG stable transfected cell line
Settings: read-out: IC50 values of blocking effects on hERG potassium currents, whole-cell patch-clamp, tail currents
// reported pIC50 per item
# log scale: pIC50 equals minus log10 of the concentration in mol/L

{"COMPOUND": "C=C(C)C(=O)NCCOc1c(N)ncnc1-c1cc(F)cc(NC(=O)c2sc3c(c2F)CC2(CC2)C3)c1C [Example 26-1]", "TARGET ENTITY": "hERG potassium channels (Homo sapiens, UniProt Q12809)", "pIC50": 4.85}

// switching to the query compound
*Q* Query (compound): C=C(C)C(=O)NCCOc1c(N)ncnc1-c1cc(F)cc(NC(=O)c2ccc3c(c2F)OC(C)(C)C3)c1C [Example 4] ; field requested: pIC50
*A* 4.81

###

Biological target: hERG potassium channels (Homo sapiens, UniProt Q12809)
Experiment: in vitro
OUTCOME MEASURE: IC50

*Q* What measured IC50 goes with C=CC(=O)N(C)CCOc1c(N)ncnc1-c1cc(F)cc(NC(=O)c2cc3c(cc2F)C2(CC2)CO3)c1C ?
*A* > 12.3 µM

###

Overview of reported log10 of IC50 across a group of molecules:
Molecular target: BTK recombinant human protein (Homo sapiens, UniProt Q06187)
Construct: purchased Thermo PV3363
Sequence (Q06187 whole entry): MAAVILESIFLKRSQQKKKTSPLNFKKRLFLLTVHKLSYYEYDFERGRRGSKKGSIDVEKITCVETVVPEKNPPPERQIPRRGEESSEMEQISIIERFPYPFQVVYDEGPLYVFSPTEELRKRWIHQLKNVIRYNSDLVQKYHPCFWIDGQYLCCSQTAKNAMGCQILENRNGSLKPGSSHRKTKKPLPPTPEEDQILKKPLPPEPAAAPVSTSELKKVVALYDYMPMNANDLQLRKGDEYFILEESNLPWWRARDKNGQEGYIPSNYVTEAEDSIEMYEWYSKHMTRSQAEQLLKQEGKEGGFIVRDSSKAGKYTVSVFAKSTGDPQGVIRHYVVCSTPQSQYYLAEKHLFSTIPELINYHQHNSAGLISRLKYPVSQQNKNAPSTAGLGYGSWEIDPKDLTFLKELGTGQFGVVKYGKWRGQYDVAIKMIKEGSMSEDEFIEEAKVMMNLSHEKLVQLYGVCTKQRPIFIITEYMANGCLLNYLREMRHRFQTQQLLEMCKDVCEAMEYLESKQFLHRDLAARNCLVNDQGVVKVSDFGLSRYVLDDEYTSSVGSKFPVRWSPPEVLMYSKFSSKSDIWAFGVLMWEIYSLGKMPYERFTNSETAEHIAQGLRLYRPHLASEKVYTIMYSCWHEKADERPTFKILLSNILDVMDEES
Assay: Inhibitory activity against BTK (HTRF KinEASE-TK kit)
Assay type: biochemical
Conditions: 2 nM BTK, 10 µM ATP, 0.5 hours preincubation at 25°C; read-out: IC50 values of inhibitory activity against BTK
Kindly note that the scale is log10 and the underlying IC50 is in nM.

Consider the following illustrative entries.
{"STRUCTURE SMILES": "C=CC(=O)N1CCC[C@H]1COc1c(N)ncnc1-c1cc(F)cc(NC(=O)c2ccc3c(c2F)OCC3(C)C)c1C", "TARGET ENTITY": "BTK recombinant human protein (Homo sapiens, UniProt Q06187)", "log10 of IC50": -0.15}
{"STRUCTURE SMILES": "C=CC(=O)N(C)CCOc1c(N)ncnc1-c1cc(F)cc(NC(=O)c2ccc3c(c2)OCC3(C)C)c1C", "TARGET ENTITY": "BTK recombinant human protein (Homo sapiens, UniProt Q06187)", "log10 of IC50": 0.88}
{"STRUCTURE SMILES": "C=CC(=O)N1C[C@H](OC)C[C@H]1COc1c(N)ncnc1-c1cc(F)cc(NC(=O)c2ccc3c(c2F)OCC3(C)C)c1C", "TARGET ENTITY": "BTK recombinant human protein (Homo sapiens, UniProt Q06187)", "log10 of IC50": 0.10}
{"STRUCTURE SMILES": "[2H]C([2H])(CN(C)C(=O)C=C)Oc1c(N)ncnc1-c1cc(F)cc(NC(=O)c2ccc3c(c2F)OCC3(C)C)c1C", "TARGET ENTITY": "BTK recombinant human protein (Homo sapiens, UniProt Q06187)", "log10 of IC50": 0.33}

Please turn your attention to the following entry.
*Q* I'd like to know its log10 of IC50. The molecule in question is C=CC(=O)N(C)CCOc1c(N)ncnc1-c1cc(F)cc(NC(=O)c2ccc3c(c2F)OCC3(C)C)c1C
*A* 0.48
